Target: T1, hu-MCSP(D3 domain)-avi-his (human, UniProt Q6UVK1 1582-2224)
T1 construct: Recombinant D3 domain with avi and his tags; also called human MCSP(D3 domain)-avi-his; Human MCSP D3
T1 sequence: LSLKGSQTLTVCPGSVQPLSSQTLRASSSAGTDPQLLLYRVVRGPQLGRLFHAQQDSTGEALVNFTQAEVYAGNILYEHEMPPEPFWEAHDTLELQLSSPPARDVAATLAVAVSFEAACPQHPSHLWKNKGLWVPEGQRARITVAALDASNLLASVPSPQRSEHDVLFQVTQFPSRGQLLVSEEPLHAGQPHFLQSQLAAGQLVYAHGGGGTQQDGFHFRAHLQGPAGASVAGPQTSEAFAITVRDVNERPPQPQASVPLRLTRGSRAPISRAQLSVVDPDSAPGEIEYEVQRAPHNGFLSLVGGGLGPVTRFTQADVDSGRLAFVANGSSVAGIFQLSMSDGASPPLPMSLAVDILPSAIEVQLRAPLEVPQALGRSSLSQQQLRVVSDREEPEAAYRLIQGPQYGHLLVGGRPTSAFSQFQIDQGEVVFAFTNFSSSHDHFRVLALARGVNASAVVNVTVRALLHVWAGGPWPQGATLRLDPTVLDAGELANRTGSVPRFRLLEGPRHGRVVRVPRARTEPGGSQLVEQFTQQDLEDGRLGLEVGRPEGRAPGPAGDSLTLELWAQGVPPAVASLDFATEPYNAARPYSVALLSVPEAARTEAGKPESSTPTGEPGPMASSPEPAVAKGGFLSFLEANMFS
Test: SPR ProteOn XPR36, 25 C; Fab captured via anti-human F(ab')2, MCSP D3 as analyte
observation_type: pKd
Answers are plain numbers, as −log10 of the molar value.

Below are 5 binders. Give each one its pKd.
1. M4-3(D6)/ML2 Fab (Fab, V domains shown, Soluble Fab with Flag tag) VH: QVQLQESGPGLVKPSQTLSLTCTVSGGSITSGYYWNWIRQHPGKGLEWIGYITFDGKNNYNPSLKSRVTISRDTSKNQFSLKLSSVTAADTAVYYCADFDYWGQGTLVTVSS VL: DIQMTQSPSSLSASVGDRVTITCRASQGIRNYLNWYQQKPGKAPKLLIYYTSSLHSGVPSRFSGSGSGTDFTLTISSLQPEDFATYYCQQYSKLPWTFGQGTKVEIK
2. M4-3(B8)/ML2 Fab (Fab, V domains shown, Soluble Fab with Flag tag) VH: QVQLQESGPGLVKPSQTLSLTCTVSGGSITSGYYWNWIRQHPGKGLEWIGYITFDGRNNYNPSLKSRVTISRDTSKNQFSLKLSSVTAADTAVYYCADFDYWGQGTLVTVSS VL: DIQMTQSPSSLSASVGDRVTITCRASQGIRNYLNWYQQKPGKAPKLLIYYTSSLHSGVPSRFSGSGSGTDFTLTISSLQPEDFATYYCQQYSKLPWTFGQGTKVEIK
3. M4-3/ML2(G3) Fab (Fab, V domains shown, Soluble Fab with Flag tag) VH: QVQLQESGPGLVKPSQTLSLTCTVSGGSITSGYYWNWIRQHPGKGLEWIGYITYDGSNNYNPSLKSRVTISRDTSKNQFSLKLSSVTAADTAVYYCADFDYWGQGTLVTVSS VL: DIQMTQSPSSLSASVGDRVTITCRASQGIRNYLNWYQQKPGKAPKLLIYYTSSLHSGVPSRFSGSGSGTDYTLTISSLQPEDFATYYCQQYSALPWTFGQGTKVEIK
4. M4-3(C1)/ML2 Fab (Fab, V domains shown, Soluble Fab with Flag tag) VH: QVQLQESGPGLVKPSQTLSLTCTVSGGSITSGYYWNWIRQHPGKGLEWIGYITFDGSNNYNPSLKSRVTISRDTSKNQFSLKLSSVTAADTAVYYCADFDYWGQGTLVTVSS VL: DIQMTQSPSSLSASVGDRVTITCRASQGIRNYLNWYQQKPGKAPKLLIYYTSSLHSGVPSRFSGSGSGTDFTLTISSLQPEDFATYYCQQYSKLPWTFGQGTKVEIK
5. M4-3/ML2(E10) Fab (Fab, V domains shown, Soluble Fab with Flag tag) VH: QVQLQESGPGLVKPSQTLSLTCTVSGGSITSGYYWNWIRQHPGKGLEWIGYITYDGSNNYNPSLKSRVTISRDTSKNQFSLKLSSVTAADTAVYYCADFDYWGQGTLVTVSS VL: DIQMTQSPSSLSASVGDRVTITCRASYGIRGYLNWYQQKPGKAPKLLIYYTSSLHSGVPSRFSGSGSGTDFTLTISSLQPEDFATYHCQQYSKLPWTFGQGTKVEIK

Resp:
[8.70, 9.52, 9.40, 9.22, 9.15]
